# tgt: Protein Mdm4 (Homo sapiens) + E3 ubiquitin-protein ligase Mdm2 (Homo sapiens) (UniProt O15151+Q00987)
# Sequence (O15151 whole entry, looked up): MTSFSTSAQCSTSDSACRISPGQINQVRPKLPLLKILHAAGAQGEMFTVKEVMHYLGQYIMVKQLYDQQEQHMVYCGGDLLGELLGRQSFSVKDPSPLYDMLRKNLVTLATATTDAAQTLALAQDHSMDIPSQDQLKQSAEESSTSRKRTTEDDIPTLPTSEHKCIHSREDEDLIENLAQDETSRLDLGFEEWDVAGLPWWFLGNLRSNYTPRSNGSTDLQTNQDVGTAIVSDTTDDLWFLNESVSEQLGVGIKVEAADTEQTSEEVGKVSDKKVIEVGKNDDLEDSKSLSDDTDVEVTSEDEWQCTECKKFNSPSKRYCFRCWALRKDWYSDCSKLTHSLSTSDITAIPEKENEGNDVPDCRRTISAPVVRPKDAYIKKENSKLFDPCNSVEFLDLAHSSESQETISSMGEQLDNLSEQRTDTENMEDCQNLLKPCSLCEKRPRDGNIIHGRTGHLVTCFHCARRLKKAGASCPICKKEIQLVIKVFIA
# Sequence (Q00987 whole entry, looked up): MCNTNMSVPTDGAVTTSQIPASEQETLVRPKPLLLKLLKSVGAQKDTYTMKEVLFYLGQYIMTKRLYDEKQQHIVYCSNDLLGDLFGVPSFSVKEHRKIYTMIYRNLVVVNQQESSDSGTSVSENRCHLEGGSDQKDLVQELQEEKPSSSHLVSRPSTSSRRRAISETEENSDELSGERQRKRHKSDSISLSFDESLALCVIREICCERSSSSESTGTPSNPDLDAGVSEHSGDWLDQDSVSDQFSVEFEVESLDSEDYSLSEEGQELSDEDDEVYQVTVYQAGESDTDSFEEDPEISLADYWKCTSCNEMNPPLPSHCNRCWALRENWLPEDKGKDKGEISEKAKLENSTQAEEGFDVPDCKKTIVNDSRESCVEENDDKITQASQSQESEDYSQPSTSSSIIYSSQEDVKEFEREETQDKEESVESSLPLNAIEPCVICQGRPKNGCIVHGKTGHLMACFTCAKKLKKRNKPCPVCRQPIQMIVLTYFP
# assay_text: inhibitors of human Mdm2-MdmX association, primary screen, cell-based, luminescence, split luciferase, SaOS-2, uHTS (AID 485346)
# test_conditions: SaOS-2 split-luciferase Mdm2/MdmX complementation, at 8 µM
About 10,000 (3%) of roughly 330,000 compounds were called active.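 Rule for the calls: active = inhibition of at least 50% at 8 µM in the primary screen; inactive = the rest.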 The sample as a whole holds a higher share of actives than the screen did.
// allowed return values: active, inactive

| molecule | group |
| --- | --- |
| CC1C(=O)C(C)C(c2ccc(O)cc2)NC1c1ccc(O)cc1 (stereo not drawn) | inactive |
| Cc1ccc2[nH]c3c(=O)n(CC(=O)NCCc4ccc(Cl)cc4)ncc3c2c1 | inactive |
| CCn1nccc1C(=O)Nc1ccc(Cl)c(Cl)c1 | inactive |
| CS(=O)(=O)N(CC(=O)Nc1ccc(Cl)c(Cl)c1)C1CCCCC1 | inactive |
| O=C1c2ccccc2C(=O)N1CCC(c1ccccc1)c1ccco1 (stereo not drawn) | inactive |
| Cc1cccc(N2Cc3ccccc3C2=NC(=O)c2ccc(Cl)nc2)c1 | inactive |

Field: outcome | Entry: CCOc1cc(/C=N/Nc2cc(C)nc3ccc(C)cc23)ccc1O
inactive

Field: outcome | Entry: COc1ccc(CCNC(=O)COC(=O)c2ncc(Cl)c(Cl)c2Cl)cc1OC
inactive

Field: outcome | Entry: CC[C@]1(C(=O)OC)[C@H]2C(=O)N(C)C(=O)[C@H]2[C@H]2CN(C)C(=NCc3ccccc3)N21
inactive

* * *

# tgt: Protein Mdm4 (Homo sapiens) + E3 ubiquitin-protein ligase Mdm2 (Homo sapiens) (UniProt O15151+Q00987)
# assay_text: inhibitors of human Mdm2-MdmX association, primary screen, cell-based, luminescence, split luciferase, SaOS-2, uHTS (AID 485346)
# test_conditions: SaOS-2 split-luciferase Mdm2/MdmX complementation, at 8 µM
Out of some 330,000 compounds screened, about 10,000 (3%) were called active.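 Rule for the calls: active = inhibition of at least 50% at 8 µM in the primary screen; inactive = the rest.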 Only a selection was taken, and actives are over-represented in it overall.
// allowed return values: active, inactive

Observe how each entry below is paired with its result.
| molecule | group |
| --- | --- |
| CCc1nc(C)cn1S(=O)(=O)c1cc([N+](=O)[O-])ccc1Cl | active |
| COc1ccc(C2C(C(C)=O)=C(O)C(=O)N2CCc2c[nH]c3ccccc23)cc1 (stereo not given) | inactive |
| CNC[C@H](CC1CCCCC1)NC[C@H](NCCC1CCCC1)[C@H](C)O | active |
| c1ccc(CSc2ncnc3c2sc2nc(N4CCOCC4)c4c(c23)CCCC4)cc1 | inactive |

Now take the following molecule into account.
Field: outcome | Entry: CCc1nc2sc3c(Cl)ncnc3c2c2c1CCCC2
active

* * *

inhibition values, listed per item
# tgt: Protein Mdm4 (Homo sapiens) + E3 ubiquitin-protein ligase Mdm2 (Homo sapiens) (UniProt O15151+Q00987)
# assay_text: inhibitors of human Mdm2-MdmX association, primary screen, cell-based, luminescence, split luciferase, SaOS-2, uHTS (AID 485346)
# test_conditions: SaOS-2 split-luciferase Mdm2/MdmX complementation, at 8 µM, stronger effect = higher value
Hit rate of the full screen: of about 330,000 compounds, about 10,000 (3%) were called active. Only a selection was taken, and actives are over-represented in it overall.

| chemical_smiles | inhibition |
| --- | --- |
| C=CC1=C(C(=O)O)N2C(=O)[C@@H](NC(=O)/C(=N\OCC(=O)O)c3csc(N)n3)[C@H]2SC1 | 16% (inactive) |
| CC(C)CCN1C(=O)c2ccc(C(=O)Nc3cccc(S(N)(=O)=O)c3)cc2C1=O | 7.02% (inactive) |
| COc1ccc(CN2CCN(C(=O)CCC(=O)Nc3nnc(C(C)C)s3)CC2)cc1F | 16.8% (inactive) |
| Cc1nc2c(C(=O)NCc3cccs3)cnn2c(C)c1Cc1ccc(F)cc1 | 5.96% (inactive) |

Then there is this molecule:
Summary for this molecule, N#Cc1c(NC(=O)CSc2nc3ccccc3c(=O)n2Cc2ccco2)sc2c1CCCC2 : inhibition is 54.1% (active)
